tested on: SK-MEL-28 melanoma; test: NCI tumour cell line growth inhibition, 48 h; in the data active = GI50 below about 0.43 µM; inactive = the rest
Log the outcome using a class from active, inactive

>>> group_label("O=C(Nc1ccc(Br)cc1F)c1cc(F)ccc1O")
"active"
>>> group_label("CSC1=Nc2c(c(C)c(C)n2COC(CO)CO)C2=NC(=O)C(C)N12 (stereo unspecified)")
"inactive"

What is the recorded call for this compound in the test? `CC[As](CC)SC[C@H](C)C(=O)N1CCC[C@H]1C(=O)O`
active

Continue with `NC(=S)N/N=C/C(=O)O`
inactive

Continue with `COc1cc(-c2oc(=O)ccc2C#Cc2ccccn2)cc(OC)c1OC`
inactive

Continue with `Oc1ccc(Nc2ncnc3c2sc2ncccc23)cc1`
inactive

Continue with COc1cc(OCc2cccc(-c3ccc(C(O)c4nccs4)cc3)c2C)cc(OC)c1C=O (stereo unspecified)
inactive

Continue with `COc1cc(C(=O)N2CCN(C=O)C2=S)cc(OC)c1OC`
inactive

Continue with `CN1CCN(C2CCN(C(=O)Nc3cc(Oc4ccc(NC(=O)C5(C(=O)Nc6ccc(F)cc6)CC5)c(F)c4)ccn3)CC2)CC1`
inactive

Continue with `O=C(O)COc1ccc2c(=O)c3sc4c(=O)c5ccccc5c(=O)c4c3c(=O)c2c1`
inactive

Continue with `COc1ccc(Sc2[nH]c(C(C)=O)c3ccccc23)cc1`
inactive

###

tested on: SK-MEL-28 melanoma; test: NCI tumour cell line growth inhibition, 48 h
Property label: TGI (µM)
A number alone suffices; assume µM.

>>> numeric_readout("Cc1ccc(SC2c3ccc(C)cc3Oc3nc(N)c(C#N)c(N)c32)cc1 (centres undefined)")
3.35
>>> numeric_readout("COc1cc(OCc2cccc(-c3ccc(C(O)c4nccs4)cc3)c2C)cc(OC)c1C=O (centres undefined)")
6.57
>>> numeric_readout("C#CCOc1cccc(-c2ncc3cc(NC(=O)CCl)ccc3n2)c1")
3.66

Next, consider the following compound.
Would you mind telling me what TGI value was observed for CC(=O)OC1COC(Oc2c(C)c3c4c(c2O)[C@@H](C)CC[C@@H]4[C@@H](C)C[C@H]3C=C(C)C)C(O)C1OC(C)=O (some centres undefined) ?
56.2

###

system: SN12C renal; assay: NCI tumour cell line growth inhibition, 48 h
Property label: TGI

Would you mind telling me what TGI value was observed for `O=C(Nc1ccn(CCO)c(=O)n1)c1ccccc1` ?
> 100 µM

Continue with `CO/N=C(\C)c1ccc(Nc2nc3ccccc3c3occc23)cc1`
28.9 µM

Continue with `CCO/C(O)=C(/C(=N)N1CCOCC1)C(=O)Nc1ccc(F)cc1`
> 100 µM

Continue with `O=C(Nc1ccc2ncccc2c1)Nc1ccc2ncccc2c1`
> 100 µM

Continue with `C[n+]1c2ccc(Cl)cc2nc2cc(-c3ccccc3)ccc21`
25.1 µM

Continue with `CCN(CC)CCNc1ccc2nnn3c4ccc(OCCN(CC)CC)cc4c(=O)c1c23`
> 100 µM

###

// reported TGI for each item listed
test system: OVCAR-5 ovarian; test: NCI tumour cell line growth inhibition, 48 h

Answered examples (3):
>>> result("Fc1ccc2c(c1)nc1n2C(c2c(Cl)cccc2Cl)SC1 (stereo unspecified)")
"28.9 µM"
>>> result("CN=C(n1ccnc1)n1ccnc1")
"> 100 µM"
>>> result("CCOC(=O)c1cnc2c(ccc3[nH]n(C)nc32)c1=O")
"> 100 µM"

Would you mind telling me what TGI value was observed for COc1cc(C2C3C=CC=C4CC=CC(=C43)C3CCC(=O)N32)cc(OC)c1OC (stereo unspecified) ?
> 100 µM

Continue with `CC(=O)CCn1c(=S)sc2ccccc21`
> 100 µM

Continue with `NS(=O)(=O)c1ccc(/C=C/c2ccc(O)c(O)c2)cc1`
> 100 µM

Continue with COc1cc(C2c3cc4c(cc3OC(N3CCCCC3)C2C)OCO4)cc(OC)c1O (stereo unspecified)
41.3 µM

Continue with `BrC1=C(Br)C2(SCCS2)[C@H]2C[C@@H]1c1ccccc12`
> 100 µM

Continue with `NC(=S)N/N=C/C(=O)O`
> 100 µM

Continue with `Nc1c(C(=O)O)nnc2ccc(Cl)cc12`
> 100 µM

Continue with `O=c1[nH]nnc2c1sc1ncccc12`
> 100 µM
